molecular target: Thymidylate synthase (Mus musculus); experiment: Inhibition of thymidylate synthase from L1210 cells
Sequence (P07607 whole entry): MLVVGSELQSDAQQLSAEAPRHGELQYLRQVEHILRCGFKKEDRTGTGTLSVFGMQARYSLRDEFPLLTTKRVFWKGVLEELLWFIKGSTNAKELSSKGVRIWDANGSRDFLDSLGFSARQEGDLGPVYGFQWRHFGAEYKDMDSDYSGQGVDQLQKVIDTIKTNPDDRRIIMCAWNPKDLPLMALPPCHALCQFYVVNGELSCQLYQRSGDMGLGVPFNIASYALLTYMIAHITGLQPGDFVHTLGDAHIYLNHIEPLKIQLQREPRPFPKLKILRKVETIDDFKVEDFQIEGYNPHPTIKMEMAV
reportedMetric: IC50 (nM)

Use these answered entries as a reference point.
chemSmiles | endpointResult
C#CCN(Cc1ccc2nc(C)nc(O)c2c1)c1cc(F)c(C(=O)N[C@@H](CCC(=O)O)C(=O)O)c(F)c1 | 80
C#CCN(Cc1ccc2nc(C)nc(O)c2c1)c1ccc(C(=O)N[C@@H](CCC(=O)O)C(=O)O)c(F)c1F | 1700
Cc1nc(O)c2cc(CN(C)c3cc(F)c(C(=O)N[C@@H](CCC(=O)O)C(=O)O)c(F)c3)ccc2n1 | 950
Cc1nc(O)c2cc(CN(C)c3cc(F)c(C(=O)N[C@@H](CCC(=O)O)C(=O)O)cc3F)ccc2n1 | 1100

a = Cc1nc(O)c2cc(CN(C)c3ccc(C(=O)N[C@@H](CCC(=O)O)C(=O)O)c(F)c3F)ccc2n1
b = C#CCN(Cc1ccc2nc(C)nc(O)c2c1)c1cc(F)c(C(=O)N[C@@H](CCC(=O)O)C(=O)O)cc1F
Form: Entry with minimum IC50 (choose one): a / b // caller expects the label of the chosen entry
b

These data points were gathered from ChEMBL document CHEMBL1126239.
